Protocol details: VP16 transactivation inhibitors, counter-screen for SRC1 inhibitor project, cell-based, luminescence, high throughput (AID 588824)
Assay context: cell-based VP16 transactivation luciferase luminescence; at 3.6 µM
Calls of active or inactive are those of the source. Rule as the data show it: active = inhibition above about 25%; inactive = the rest.
Your reply should match one of these outcome classes. True = active, False = inactive

O=C(Nc1nc(-c2ccc(S(=O)(=O)N3CCOCC3)cc2)cs1)c1ccccc1; False
Cc1cccc(C(=O)Nc2sc3c(c2C(=O)O)CCCC3)c1; True
Cc1nc2c(-c3ccc(Cl)cc3)cnn2c(N)c1-c1ccc(F)cc1; False
Nc1ncc([N+](=O)[O-])c(N2CCCCCC2)n1; True
CCc1ccc(-c2nnn(CCC(=O)OC)n2)cc1; False

In: Per the records of this test, what outcome belongs to Cc1ccc(O)c(C(=O)c2cnn(C(=O)COc3ccc(Cl)cc3)c2)c1 ?
Out: False

In: Do the same for Cc1nc2sc(C(N)=O)c(N)c2c2c1CCCC2 please
Out: True

In: Do the same for COc1ccc(-c2csc(N3CCN(c4cc(C)nc5ccccc45)CC3)n2)cc1OC please
Out: False

In: Do the same for Cc1nc2c(-c3ccc(F)cc3)cnn2c(N)c1-c1ccccc1 please
Out: False

In: Do the same for Cc1ccccc1-n1nc(C)c2c1N=C1C(Cl)=CC(Cl)=CN1C2c1ccc(C(=O)O)cc1 (configuration not stated) please
Out: False

----------
Task for the reader: assign each of the following compounds its reported inhibition.
Protocol details: VP16 transactivation reporter inhibitors, counter-screen for LRH-1 inverse agonist project, cell-based, luminescence, high throughput (AID 651615)
Assay context: Gal4-VP16 luciferase reporter cells, at 3.6 µM, hits give high values
One number for each entry, in %.

Example entries and their recorded answers appear below.
CC(CCc1ccccc1)NC(=O)COc1ccc(S(=O)(=O)N2CCOCC2)cc1[N+](=O)[O-] (stereo unspecified); 24.5
COc1ccccc1OCc1nnc(SCC(=O)Nc2ccc(N3CCOCC3)cc2)n1C; -11.3
OC[C@H]1O[C@@H](n2cnc3c(NCc4ccco4)ncnc32)[C@H](O)[C@@H]1O; 61.4
COc1ccc(-c2cnc3c(NC=O)cc(-c4ccc(S(C)(=O)=O)cc4)cn23)cc1OC; 30.2
O=C(CN1C(=O)c2ccccc2S1(=O)=O)c1ccc2c(c1)OCCO2; 84.4
COc1ccc(N2CC(C(=O)N/N=C/c3ccc(C)cc3)CC2=O)cc1 (stereo unspecified); 19.5
O=C(NC(NNc1ccc([N+](=O)[O-])cc1)(C(F)(F)F)C(F)(F)F)c1ccccc1Cl; 5.04
Cc1ccnc2c1ccc1cccnc12; 65.5

Below are 6 compounds. Give each one its inhibition.
1. N#Cc1cc([N+](=O)[O-])ccc1NC(=O)COC(=O)C1CCC(=O)N1 (stereo unspecified)
2. CCCCCCCCCC[n+]1cccc2c3ccccc3ccc21
3. N#CC1=C(N2CCOCC2)/C(=C\c2ccccc2)CC1
4. O=C(/C=C/c1cccs1)NC(=S)NNC(=O)c1ccccc1O
5. Clc1cccc(CNc2ccn3nc(-c4ccc(OCc5ccccc5)cc4)cc3n2)c1
6. OCC1OC(n2cnc3c(NCc4ccco4)ncnc32)C(O)C1O (stereo unspecified)

Out:
[-3.83, 95.9, 8.41, 86, 56.4, 67.7]

----------
Test system: transactivating tegument protein VP16 (Human herpesvirus 1), Gal4-VP16 luciferase reporter
Protocol details: VP16 transactivation inhibitors, counter-screen for SRC3 inhibitor project, cell-based, luminescence, high throughput (AID 588794)
Assay context: mammalian cells, VP16-driven luciferase reporter luminescence; at 3.6 µM; hits give high values
Task for the reader: assign each of the following molecules its reported inhibition.
Give bare numbers, in %.

CC1Cc2ccccc2N1c1ncnc(N)c1[N+](=O)[O-] (stereo unspecified); 68
COc1cccc(-c2c(C(=O)N/N=C/c3ccncc3)nnn2-c2nonc2N)c1; 12.9

Below are 5 molecules. Give each one its inhibition.
1. CCCCN(c1ccccc1)c1ncnc(N)c1[N+](=O)[O-]
2. Cc1sc(-c2ccccn2)nc1OC(=O)c1ccc(F)cc1F
3. COc1ccc(C(C(=O)NC2CCCCC2)N(C(=O)CCl)c2ccc(C)cc2)cc1 (stereo unspecified)
4. O=C(NCCc1ccccc1)c1ccc2c(c1)OCCO2
5. O=C(Nc1ccc(Cn2cccn2)cc1)c1ccc(COc2cccc(Br)c2)cc1

Out:
[57.6, 16.1, 52.9, 11.9, 42.6]

Below are 4 molecules. Give each one its inhibition.
1. CC(=O)c1sc(NC(=O)C2(F)C(F)(F)C(F)(F)C(F)(F)C(F)(F)C2(F)F)nc1C
2. COc1ccc2c(c1OC)C(=O)N1c3ccccc3C(=O)N(c3ccccc3)C21 (stereo unspecified)
3. CN(Cc1cnc2nc(N)nc(N)c2n1)c1ccc(C(=O)NC(CCC(=O)O)C(=O)O)cc1C(F)(F)F (stereo unspecified)
4. CCOc1ccc(-n2c(C)c(C(C)=O)c3cc(O)ccc32)cc1

Out:
79
8.85
7.16
51.2
